- ASSAYED_TARGET: LRRK2 G2019S enzyme (Homo sapiens (Human), UniProt Q5S007, G2019S)
- Sequence (Q5S007 whole entry G2019S): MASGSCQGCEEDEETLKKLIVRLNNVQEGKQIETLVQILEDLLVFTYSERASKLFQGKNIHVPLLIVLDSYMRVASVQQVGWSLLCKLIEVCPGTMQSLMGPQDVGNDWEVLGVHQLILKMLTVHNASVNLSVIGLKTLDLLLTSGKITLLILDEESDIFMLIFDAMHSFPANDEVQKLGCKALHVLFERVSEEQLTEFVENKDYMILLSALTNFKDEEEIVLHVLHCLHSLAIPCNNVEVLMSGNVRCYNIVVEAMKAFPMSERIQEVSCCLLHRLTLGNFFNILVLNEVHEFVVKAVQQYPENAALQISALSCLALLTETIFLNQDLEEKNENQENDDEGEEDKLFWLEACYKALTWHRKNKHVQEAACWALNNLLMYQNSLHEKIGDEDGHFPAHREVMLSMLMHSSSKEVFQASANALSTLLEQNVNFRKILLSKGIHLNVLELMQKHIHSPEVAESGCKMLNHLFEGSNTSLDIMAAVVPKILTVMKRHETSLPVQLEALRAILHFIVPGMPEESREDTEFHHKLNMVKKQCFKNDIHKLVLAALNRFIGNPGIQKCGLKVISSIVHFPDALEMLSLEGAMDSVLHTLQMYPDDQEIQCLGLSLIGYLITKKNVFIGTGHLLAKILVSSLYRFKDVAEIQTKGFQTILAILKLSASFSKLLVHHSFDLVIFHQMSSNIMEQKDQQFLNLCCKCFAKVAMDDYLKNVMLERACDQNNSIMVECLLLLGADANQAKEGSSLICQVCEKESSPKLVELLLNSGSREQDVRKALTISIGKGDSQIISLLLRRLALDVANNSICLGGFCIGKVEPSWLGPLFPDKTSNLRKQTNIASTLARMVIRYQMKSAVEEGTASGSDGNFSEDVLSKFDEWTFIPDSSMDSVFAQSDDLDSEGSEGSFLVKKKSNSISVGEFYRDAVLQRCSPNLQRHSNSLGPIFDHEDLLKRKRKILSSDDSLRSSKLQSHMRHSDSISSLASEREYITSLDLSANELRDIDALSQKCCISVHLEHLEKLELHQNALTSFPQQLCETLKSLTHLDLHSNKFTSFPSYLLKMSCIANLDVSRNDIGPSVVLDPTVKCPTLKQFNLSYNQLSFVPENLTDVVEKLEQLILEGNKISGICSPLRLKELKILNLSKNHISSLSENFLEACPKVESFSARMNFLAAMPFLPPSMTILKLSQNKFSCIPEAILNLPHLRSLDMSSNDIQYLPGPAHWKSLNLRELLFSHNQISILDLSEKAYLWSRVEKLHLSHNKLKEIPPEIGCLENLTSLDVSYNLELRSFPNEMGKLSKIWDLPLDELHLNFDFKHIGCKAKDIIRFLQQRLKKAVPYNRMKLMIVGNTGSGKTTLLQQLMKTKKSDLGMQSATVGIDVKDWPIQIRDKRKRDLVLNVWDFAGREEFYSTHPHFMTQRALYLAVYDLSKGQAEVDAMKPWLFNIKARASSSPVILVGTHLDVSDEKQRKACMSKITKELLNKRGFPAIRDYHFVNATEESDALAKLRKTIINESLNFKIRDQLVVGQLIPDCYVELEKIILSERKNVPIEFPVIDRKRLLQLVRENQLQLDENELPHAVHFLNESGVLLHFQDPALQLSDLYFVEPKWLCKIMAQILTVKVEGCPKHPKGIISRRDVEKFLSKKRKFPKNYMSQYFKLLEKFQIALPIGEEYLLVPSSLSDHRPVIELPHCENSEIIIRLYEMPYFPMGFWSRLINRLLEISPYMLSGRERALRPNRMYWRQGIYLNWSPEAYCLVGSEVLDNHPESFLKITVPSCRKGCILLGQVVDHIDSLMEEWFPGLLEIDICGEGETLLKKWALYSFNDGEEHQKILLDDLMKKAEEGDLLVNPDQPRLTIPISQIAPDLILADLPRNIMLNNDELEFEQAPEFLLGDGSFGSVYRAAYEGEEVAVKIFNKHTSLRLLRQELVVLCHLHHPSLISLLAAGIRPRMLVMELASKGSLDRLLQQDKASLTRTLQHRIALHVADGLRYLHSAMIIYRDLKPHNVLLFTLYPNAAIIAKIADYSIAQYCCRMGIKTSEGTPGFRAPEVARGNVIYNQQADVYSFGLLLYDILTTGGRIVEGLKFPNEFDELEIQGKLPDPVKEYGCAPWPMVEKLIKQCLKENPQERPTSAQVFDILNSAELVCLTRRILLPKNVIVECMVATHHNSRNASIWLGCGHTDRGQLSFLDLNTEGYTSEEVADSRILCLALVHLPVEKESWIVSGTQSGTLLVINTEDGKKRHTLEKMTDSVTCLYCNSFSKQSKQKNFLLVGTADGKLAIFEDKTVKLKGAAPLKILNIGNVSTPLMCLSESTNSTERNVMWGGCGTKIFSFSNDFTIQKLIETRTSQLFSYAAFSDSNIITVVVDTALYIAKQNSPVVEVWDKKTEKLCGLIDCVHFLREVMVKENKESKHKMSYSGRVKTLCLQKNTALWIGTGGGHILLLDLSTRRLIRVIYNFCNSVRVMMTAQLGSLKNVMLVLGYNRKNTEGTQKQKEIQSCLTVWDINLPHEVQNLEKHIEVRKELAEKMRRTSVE
- TEST_PROTOCOL: LRRK2 G2019S TR-FRET biochemical kinase assay (LRRKtide substrate)
- CONDITION_NOTES: Table B-2; 5 nM LRRK2, 134 μM ATP, 60 minute reaction, 23° C.
pIC50: −log10 of the molar value.
PROPERTY_LABEL: pIC50

| SMILES_STRING | pIC50 |
| --- | --- |
| CNc1nc(Nc2cn(C(C)(C)C#N)nc2C)nc2[nH]cc(F)c12 | 8.70 to 9.00 |

Response field pIC50 (LRRK2 G2019S enzyme (Homo sapiens (Human), UniProt Q5S007, G2019S)) for item COc1nc(Nc2cn(C(C)(C)C#N)nc2C)nc2[nH]cc(C3CC3)c12 : 7.70 to 8.70

Response field pIC50 (LRRK2 G2019S enzyme (Homo sapiens (Human), UniProt Q5S007, G2019S)) for item CCOc1nc(Nc2cn(C(C)(C)C#N)nc2C)nc2[nH]cc(Cl)c12 : ≥ 9.00

Response field pIC50 (LRRK2 G2019S enzyme (Homo sapiens (Human), UniProt Q5S007, G2019S)) for item COc1nc(Nc2cn(C(C)(C)C#N)nc2C)nc2[nH]cc(F)c12 : 8.70 to 9.00

Response field pIC50 (LRRK2 G2019S enzyme (Homo sapiens (Human), UniProt Q5S007, G2019S)) for item COc1nc(Nc2cn(C(C)(C)C#N)nc2C)nc2[nH]cnc12 : 7.70 to 8.70

Response field pIC50 (LRRK2 G2019S enzyme (Homo sapiens (Human), UniProt Q5S007, G2019S)) for item COc1nc(Nc2cn(C(C)(C)C#N)nc2C)nc2[nH]cc(Cl)c12 : 8.70 to 9.00

Response field pIC50 (LRRK2 G2019S enzyme (Homo sapiens (Human), UniProt Q5S007, G2019S)) for item CNc1nc(Nc2cn(C)nc2C)nc2[nH]cc(Cl)c12 : 7.70 to 8.70

Response field pIC50 (LRRK2 G2019S enzyme (Homo sapiens (Human), UniProt Q5S007, G2019S)) for item COc1nc(Nc2cnn(C)c2C)nc2[nH]cc(Cl)c12 : 8.70 to 9.00

Response field pIC50 (LRRK2 G2019S enzyme (Homo sapiens (Human), UniProt Q5S007, G2019S)) for item COc1nc(Nc2cn(C(C)(C)C#N)nc2C)nc2[nH]cc(C(F)(F)F)c12 : 7.70 to 8.70

====

- ASSAYED_TARGET: LRRK2 G2019S enzyme (Homo sapiens (Human), UniProt Q5S007, G2019S)
- TEST_PROTOCOL: LRRK2 G2019S TR-FRET biochemical kinase assay (LRRKtide substrate)
- CONDITION_NOTES: Table D-4; 5 nM LRRK2, 134 μM ATP, 60 minute reaction, 23° C.
pIC50: −log10 of the molar value.
PROPERTY_LABEL: pIC50

| COMPOUND | PROPERTY_LABEL | EXPERIMENTAL_VALUE |
| --- | --- | --- |
| COc1nc(Nc2cn(C(F)(F)C(N)=O)nc2C)ncc1Br | pIC50 | > 7.52 |

// sample CNc1nc(Nc2cnn(C3CCC(n4ccnn4)C3)c2C)ncc1C(F)(F)F [Compound D-124] , its pIC50 was > 7.52

// sample CNc1nc(Nc2cn(C3(c4ncn(C)n4)CC3)nc2C)ncc1C(F)(F)F , its pIC50 was < 7.22

// sample CNc1nc(Nc2cnn([C@H]3C[C@H](n4cc(F)cn4)C3)c2C)ncc1Br , its pIC50 was > 7.52

// sample CCNc1nc(Nc2cnn([C@@]3(C)CCn4ccnc43)c2C)ncc1C(F)(F)F , its pIC50 was < 7.22

// sample CNc1nc(Nc2cnn(C3CCC(n4nccn4)C3)c2C)ncc1C(F)(F)F [Compounds D-107] , its pIC50 was > 7.52

// sample CNc1nc(Nc2cn(C3CCn4ccnc43)nc2C)ncc1C(F)(F)F (single isomer, unassigned) [Compound D-3] , its pIC50 was < 7.22

// sample CCNc1nc(Nc2cnn([C@H]3C[C@H](n4nccn4)C3)c2C)ncc1Br , its pIC50 was > 7.52

// sample CCNc1nc(Nc2cnn(C3CCn4cncc43)c2C)ncc1C(F)(F)F (stereo not drawn) , its pIC50 was > 7.52

====

// pIC50 lookup, one value per entry
- ASSAYED_TARGET: LRRK2 G2019S enzyme (Homo sapiens (Human), UniProt Q5S007, G2019S)
- TEST_PROTOCOL: LRRK2 G2019S TR-FRET biochemical kinase assay (LRRKtide substrate)
- CONDITION_NOTES: Table A-2; 5 nM LRRK2, 134 μM ATP, 60 minute reaction, 23° C.
pIC50: −log10 of the molar value.

// solved cases for pIC50 follow
| MOLECULE | pIC50 |
| --- | --- |
| Cc1nn(C(C)(C)C#N)cc1Nc1ncc(C(F)(F)F)c(C2(F)CC2)n1 [Compound A-38] | < 7.22 |
| Cn1nc(C(C)(C)C#N)cc1Nc1ncc(C(F)(F)F)c(C2CC2)n1 [Compound A-5] | 7.22 to 7.52 |
| Cc1nn(C2CCC(=O)N(C)C2)cc1Nc1ncc(C(F)(F)F)c(C2CC2)n1 (centres unmarked) [Compound A-27] | < 7.22 |
| FCC(CF)n1ncc(Nc2ncc(C(F)(F)F)c(C3CC3)n2)c1Cl [Compound A-45] | > 7.52 |
| Cc1c(Nc2ncc(C(F)(F)F)c(C3CC3)n2)cnn1[C@H]1C[C@H](c2ncnn2C)C1 [Compound A-80] | > 7.52 |

Response field pIC50 (LRRK2 G2019S enzyme (Homo sapiens (Human), UniProt Q5S007, G2019S)) for item Cc1nn(C(C)(C)C#N)cc1Nc1ncc(C#N)c(C2CC2)n1 [Compound A-3] : < 7.22

Response field pIC50 (LRRK2 G2019S enzyme (Homo sapiens (Human), UniProt Q5S007, G2019S)) for item Cc1nn(C(C)(C)c2ccn(C)n2)cc1Nc1ncc(C(F)(F)F)c(C2CC2)n1 [Compound A-23] : > 7.52

Response field pIC50 (LRRK2 G2019S enzyme (Homo sapiens (Human), UniProt Q5S007, G2019S)) for item Cc1nn([C@@]2(C)CCNC2=O)cc1Nc1ncc(C(F)(F)F)c(C2CC2)n1 [Compounds A-94] : > 7.52

Response field pIC50 (LRRK2 G2019S enzyme (Homo sapiens (Human), UniProt Q5S007, G2019S)) for item Cc1nn(C(C)(C)c2ncn(C)n2)cc1Nc1ncc(C(F)(F)F)c(C2CC2)n1 [Compound A-8] : > 7.52

Response field pIC50 (LRRK2 G2019S enzyme (Homo sapiens (Human), UniProt Q5S007, G2019S)) for item Cc1nn([C@H]2CCc3cn[nH]c32)cc1Nc1ncc(C(F)(F)F)c(C2CC2)n1 [Compounds A-90] : > 7.52

Response field pIC50 (LRRK2 G2019S enzyme (Homo sapiens (Human), UniProt Q5S007, G2019S)) for item Cc1nn(C(C)(C)c2ccnn2C)cc1Nc1ncc(C(F)(F)F)c(C2CC2)n1 [Compound A-22] : < 7.22

Response field pIC50 (LRRK2 G2019S enzyme (Homo sapiens (Human), UniProt Q5S007, G2019S)) for item CCN1CC(n2cc(Nc3ncc(C(F)(F)F)c(C4CC4)n3)c(C)n2)CCC1=O (single isomer, unassigned) [Compound A-61] : 7.22 to 7.52

Response field pIC50 (LRRK2 G2019S enzyme (Homo sapiens (Human), UniProt Q5S007, G2019S)) for item Cc1c(Nc2ncc(C(F)(F)F)c(C3CC3)n2)cnn1[C@H]1CCNC1=O [Compounds A-91] : 7.22 to 7.52

Response field pIC50 (LRRK2 G2019S enzyme (Homo sapiens (Human), UniProt Q5S007, G2019S)) for item Cc1nnc(C(C)(C)n2cc(Nc3ncc(C(F)(F)F)c(C4CC4)n3)c(C)n2)o1 [Compound A-74] : 7.22 to 7.52

Response field pIC50 (LRRK2 G2019S enzyme (Homo sapiens (Human), UniProt Q5S007, G2019S)) for item Cc1nn([C@H]2C[C@H](c3ncnn3C)C2)cc1Nc1ncc(C(F)(F)F)c(C2CC2)n1 [Compound A-81] : > 7.52

Response field pIC50 (LRRK2 G2019S enzyme (Homo sapiens (Human), UniProt Q5S007, G2019S)) for item CC1(O)CCCC1n1ncc(Nc2ncc(C(F)(F)F)c(C3CC3)n2)c1Cl (single isomer, unassigned) [Compound A-49] : < 7.22

====

- ASSAYED_TARGET: LRRK2 G2019S enzyme (Homo sapiens (Human), UniProt Q5S007, G2019S)
- TEST_PROTOCOL: LRRK2 G2019S TR-FRET biochemical kinase assay (LRRKtide substrate)
- CONDITION_NOTES: Table A-2; 5 nM LRRK2, 134 μM ATP, 60 minute reaction, 23° C.
PROPERTY_LABEL: IC50

// solved cases for IC50 follow
| COMPOUND | PROPERTY_LABEL | EXPERIMENTAL_VALUE |
| --- | --- | --- |
| Cc1nn(C(C)(C)c2cn[nH]n2)cc1Nc1ncc(C(F)(F)F)c(C2CC2)n1 | IC50 | < 30 nM |
| Cc1nn([C@H]2CC3C(C2)[C@H]3c2ncnn2C)cc1Nc1ncc(C(F)(F)F)c(C2CC2)n1 (stereo partly shown) | IC50 | < 30 nM |
| Cc1nn([C@@H]2CCn3ccnc32)cc1Nc1ncc(C(F)(F)F)c(C2CC2)n1 (single isomer, unassigned) | IC50 | > 60 nM |
| Cc1c(Nc2ncc(C(F)(F)F)c(C3CC3)n2)cnn1C1CCOCC1 | IC50 | < 30 nM |

// sample Cc1nn(C(C)(C)c2ncn(C)n2)cc1Nc1ncc(Br)c(C2CC2)n1 , its IC50 was < 30 nM

// sample Cc1nn(C(F)(F)c2ncnn2C)cc1Nc1ncc(C(F)(F)F)c(C2CC2)n1 , its IC50 was > 60 nM

// sample Cc1nn(C(C)(C)c2cn(C)nn2)cc1Nc1ncc(C(F)(F)F)c(C2CC2)n1 , its IC50 was < 30 nM

// sample Cc1nn(Cc2ccn(C)n2)cc1Nc1ncc(C(F)(F)F)c(C2CC2)n1 , its IC50 was < 30 nM

// sample Cc1nn(C(C)(C)c2ncn(C)n2)cc1Nc1ncc(Cl)c(C2CC2)n1 , its IC50 was < 30 nM

// sample Cc1c(Nc2ncc(C(F)(F)F)c(C3CC3)n2)cnn1Cc1ccn(C)n1 , its IC50 was < 30 nM
